# credit: patent US20250034110A1

Target: UniProt:Q92633
Assay: In vitro functional assay of lysophosphatidic acid receptor 1 activity (calcium flux)
Type: cell-based
Conditions: B103 cells stably expressing human LPAR1; calcium flux (Fluo-4 NW) after lysophosphatidic acid (18:1) at EC80; 100 pM to 10 μM; read-out: LPAR1 IC50
Overview of reported IC50 across a group of compounds:

Input: Hi! What's the reported IC50 for CC(=O)N1CC(N(C(=O)Nc2ccc(C)cc2OC(F)F)c2ccccc2C(C)C)C1 on UniProt:Q92633?
Output: 0.01 to 0.1 µM

Input: Okay, and COc1ccc(NC(=O)N(c2ccccc2C(C)C)[C@H]2C[C@@H]3CC[C@H]2N3C(C)=O)c(OC(F)F)n1 (racemic) ?
Output: > 1 µM

Input: Okay, and CNC(=O)CC1CC(N(C(=O)Nc2ccc(C)nc2OC(F)F)c2ccccc2C(C)C)C1 (stereo not shown) ?
Output: 0.1 to 1 µM

Input: Okay, and CC(C)c1ccccc1N(C(=O)Nc1cc(F)c(F)cc1OC(F)F)[C@H]1C[C@H](C(=O)O)C1 ?
Output: 0.01 to 0.1 µM

Input: Okay, and Cc1ccc(NC(=O)N(c2ccccc2C(C)C)C2CN(S(N)(=O)=O)C2)c(OC(F)F)n1 ?
Output: 0.01 to 0.1 µM

Input: Okay, and Cc1ccc(NC(=O)N(c2ccccc2C(C)C)[C@H]2CC[C@@H](CO)CC2)c(OC(F)F)n1 ?
Output: 0.1 to 1 µM

Others:
Input: Hi! What's the reported IC50 for COc1ccc(NC(=O)N(c2ccccc2C(C)C)[C@H]2C[C@@]3(C[C@@H]3C(=O)O)C2)c(OC(F)F)n1 on UniProt:Q92633?
Output: 0.01 to 0.1 µM

* * *

Molecular target: human LPAR1 (Homo sapiens, UniProt Q92633)
Sequence (Q92633 whole entry): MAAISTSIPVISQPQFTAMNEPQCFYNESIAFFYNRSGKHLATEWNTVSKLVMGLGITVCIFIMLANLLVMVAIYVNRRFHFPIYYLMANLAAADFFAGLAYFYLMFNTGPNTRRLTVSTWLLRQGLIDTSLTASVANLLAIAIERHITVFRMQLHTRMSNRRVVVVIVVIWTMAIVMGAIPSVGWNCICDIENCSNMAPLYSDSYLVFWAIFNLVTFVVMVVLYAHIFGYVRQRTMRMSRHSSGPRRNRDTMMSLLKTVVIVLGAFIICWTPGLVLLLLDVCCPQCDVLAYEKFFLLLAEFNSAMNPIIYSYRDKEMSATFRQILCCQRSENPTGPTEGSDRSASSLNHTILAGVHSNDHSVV
Assay: In vitro functional assay of lysophosphatidic acid receptor 1 activity (calcium flux)
Type: cell-based
Conditions: LPAR1 IC50
pIC50: −log10 of the molar value.
ASSAY_ENDPOINT: pIC50

Answered cases to consult:
Input: Would you kindly share the measured pIC50 for CC(=O)N1CCC(N(C(=O)Nc2cncc(F)c2)c2ccccc2C(C)C)CC1 [Example 246] ?
Output: < 6.00

Input: Okay, and CC(=O)N1CCC(N(C(=O)Nc2ccc(C)nc2OC(F)F)c2cccnc2C(C)C)CC1 [Example 31] ?
Output: 6.00 to 7.00

Input: Okay, and COc1ccc(NC(=O)N(c2ccccc2C(C)C)[C@@H]2[C@@H]3CC[C@H]2CN(C(C)=O)C3)c(OC(F)F)n1 [Example 56] ?
Output: 6.00 to 7.00

Input: Okay, and COc1ccc(NC(=O)N(c2ccccc2C(C)C)[C@H]2CCN(C(C)=O)C[C@H]2F)c(OC(F)F)n1 [Example 48] ?
Output: 7.00 to 8.00

Input: Okay, and COc1ccc(NC(=O)N(c2ccccc2C(C)C)[C@@H]2C[C@H]3C[C@@H]2CN3C(C)=O)c(OC(F)F)n1 [Example 58] ?
Output: < 6.00

Others:
Input: Would you kindly share the measured pIC50 for CC(=O)N1CCC(N(C(=O)Nc2ccc(C)nc2OC(F)F)c2ccccc2C(F)F)CC1 [Example 34] ?
Output: < 6.00

Input: Okay, and CC(=O)N1CCC(N(C(=O)Nc2cnc(C(F)(F)F)cn2)c2ccccc2C(C)C)CC1 [Example 132] ?
Output: < 6.00

Input: Okay, and CC(=O)N1CCC(N(C(=O)Nc2ccc(C)nc2OC(F)F)c2cccc(C(C)C)c2)CC1 [Example 32] ?
Output: 6.00 to 7.00

Input: Okay, and Cc1ccc(NC(=O)N(c2ccccc2C(C)C)C2CCN(C(=O)OC(C)(C)C)CC2)c(OC(F)F)n1 [Example 1] ?
Output: 6.00 to 7.00

Input: Okay, and COc1ccc(NC(=O)N(c2ccccc2C(C)C)[C@@H]2CCN(C(C)=O)C[C@@H]2F)c(OC(F)F)n1 [Example 49] ?
Output: 7.00 to 8.00

Input: Okay, and COc1ccc(NC(=O)N(c2ccccc2C(C)C)C2CCN(C(N)=O)CC2)c(OC(F)F)n1 [Example 65] ?
Output: 7.00 to 8.00

Input: Okay, and CC(=O)N1CCC(N(C(=O)Nc2ccc(C)[n+]([O-])c2OC(F)F)c2ccccc2C(C)C)CC1 [Example 197] ?
Output: < 6.00

Input: Okay, and Cc1ccc(NC(=O)N(c2ccccc2C(C)C)C2CCN(S(C)(=O)=O)CC2)c(OC(F)F)n1 [Example 73] ?
Output: > 8.00

Input: Okay, and CC(=O)N1CCC(N(C(=O)Nc2ccc(C(F)(F)F)nc2C)c2ccccc2C(C)C)CC1 [Example 88] ?
Output: < 6.00

Input: Okay, and COc1ccc(NC(=O)N(c2ccccc2C(C)C)[C@@H]2C[C@H]3CC[C@@H](C2)N3C(C)=O)c(OC(F)F)n1 [Example 54] ?
Output: 7.00 to 8.00

Input: Okay, and CC(=O)N1C[C@@H]2[C@H](C1)[C@H]2N(C(=O)Nc1ccc(C)nc1OC(F)F)c1ccccc1C(C)C [Example 69] ?
Output: 6.00 to 7.00

Input: Okay, and COC(C)c1ccccc1N(C(=O)Nc1ccc(C)nc1OC(F)F)C1CCN(C(C)=O)CC1 (stereo not shown) [Example 35] ?
Output: 6.00 to 7.00

Input: Okay, and COc1ccc(NC(=O)N(c2ccccc2C(C)C)[C@@H]2CCN(C(C)=O)C[C@H]2F)c(OC(F)F)n1 (racemic) [Example 46] ?
Output: 7.00 to 8.00

Input: Okay, and CNC(=O)N1CCC(N(C(=O)Nc2ccc(OC)nc2OC(F)F)c2ccccc2C(C)C)CC1 [Example 64] ?
Output: 7.00 to 8.00

Input: Okay, and COc1nc(C#N)ccc1NC(=O)N(c1ccccc1C(C)C)C1CCN(C(C)=O)CC1 [Example 185] ?
Output: 6.00 to 7.00

Input: Okay, and CC(=O)N1CCC(N(C(=O)Nc2ncc(Br)nc2OC(F)F)c2ccccc2C(C)C)CC1 [Example 184] ?
Output: 6.00 to 7.00

Input: Okay, and CC(=O)N1CCC(N(C(=O)Nc2ccc(OC(F)F)nc2Cl)c2ccccc2C(C)C)CC1 [Example 108] ?
Output: 6.00 to 7.00

Input: Okay, and COc1ccc(NC(=O)N(c2ccccc2C(C)C)C2CCN(C(C)=O)CC2)c(OCC(F)F)n1 [Example 106] ?
Output: 7.00 to 8.00

Input: Okay, and COc1nc(C(F)F)ccc1NC(=O)N(c1ccccc1C(C)C)C1CCN(C(C)=O)CC1 [Example 113] ?
Output: 7.00 to 8.00

Input: Okay, and CC(=O)N1CCC(N(C(=O)Nc2ccc(C)nc2OC(F)F)c2cccc(C)c2)CC1 [Example 33] ?
Output: < 6.00
